Measured values drawn from patent US9708318B2 for this set.

Can you tell me pIC50 for the items I'm about to list?
# Tested Target: FGFR4 (Homo sapiens (Human), UniProt P22455)
# Sequence (P22455 22-802): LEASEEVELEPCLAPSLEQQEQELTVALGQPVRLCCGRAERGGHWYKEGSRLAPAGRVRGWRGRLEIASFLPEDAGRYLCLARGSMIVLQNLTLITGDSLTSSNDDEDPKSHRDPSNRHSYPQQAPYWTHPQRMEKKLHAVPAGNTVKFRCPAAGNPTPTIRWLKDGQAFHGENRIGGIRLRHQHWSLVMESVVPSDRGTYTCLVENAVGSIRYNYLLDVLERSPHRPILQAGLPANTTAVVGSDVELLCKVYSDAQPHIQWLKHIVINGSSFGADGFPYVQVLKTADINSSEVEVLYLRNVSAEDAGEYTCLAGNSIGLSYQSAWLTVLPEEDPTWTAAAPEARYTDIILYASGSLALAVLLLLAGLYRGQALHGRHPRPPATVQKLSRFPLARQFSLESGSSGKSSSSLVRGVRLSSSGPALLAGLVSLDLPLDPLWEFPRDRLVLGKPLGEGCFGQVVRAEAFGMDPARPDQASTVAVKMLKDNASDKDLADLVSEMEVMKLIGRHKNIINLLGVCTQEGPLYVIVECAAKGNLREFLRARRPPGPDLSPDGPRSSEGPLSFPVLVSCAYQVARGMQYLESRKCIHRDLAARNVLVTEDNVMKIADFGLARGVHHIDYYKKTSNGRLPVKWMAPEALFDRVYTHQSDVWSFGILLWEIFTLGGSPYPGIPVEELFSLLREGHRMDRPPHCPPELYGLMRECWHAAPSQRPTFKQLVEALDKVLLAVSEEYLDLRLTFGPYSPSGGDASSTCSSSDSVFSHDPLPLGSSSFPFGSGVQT
# Experiment Summary: FGFR Enzymatic Assay (FRET peptide phosphorylation), FGFR4
# Format: biochemical
# Condition Label: pre-incubated for 4 hours
pIC50: −log10 of the molar value.

Give recorded pIC50. COc1cc(OC)c(F)c(N2Cc3cnc(-c4cn(C)nc4C)cc3N(C3(C#N)CC3)C2=O)c1F [Example 91] 6.70 to 7.52

Give the value of pIC50 reported for the following: COc1cc(OC)c(F)c(N2Cc3cnc(-c4cn(C)nc4C)cc3N(Cc3cnccn3)C2=O)c1F [Example 85] 6.70 to 7.52

Please give measured pIC50 of the following entry: COc1cc(OC)c(F)c(N2Cc3cnc(-c4cn(C)nc4C)cc3N(c3ccc(CC#N)cc3)C2=O)c1F [Example 97] 6.70 to 7.52

Provide measured pIC50 value, entry: COc1cc(OC)c(F)c(N2Cc3cnc(-c4cncc(F)c4)cc3C3(CC3)C2=O)c1F [Example 5] > 8.00

Give pIC50 for COc1cc(OC)c(F)c(N2Cc3cnc(-c4ccncc4)cc3C3(CC3)C2=O)c1F [Example 185] 7.52 to 8.00

Give me measured pIC50, please, for this compound: COc1cc(OC)c(F)c(N2Cc3cnc(-c4cc(N)c(F)cc4C)cc3C3(CC3)C2=O)c1F [Example 2] 6.70 to 7.52

Return reported pIC50. Input compound: CCn1cc(-c2cc3c(cn2)CN(c2c(F)c(OC)cc(OC)c2F)C(=O)C32CC2)c(C)n1 [Example 158] 7.52 to 8.00

Supply measured pIC50 of COc1cc(OC)c(F)c(N2Cc3cnc(-c4cn(C)nc4C)cc3N(c3ccc(C#N)cc3)C2=O)c1F [Example 44] in your reply. 6.70 to 7.52
